IC50 values for the compounds below.
molecular target: human neutrophil elastase (HNE) (Homo sapiens, UniProt P08246); assay: HNE inhibition assay
Sequence (P08246 30-267): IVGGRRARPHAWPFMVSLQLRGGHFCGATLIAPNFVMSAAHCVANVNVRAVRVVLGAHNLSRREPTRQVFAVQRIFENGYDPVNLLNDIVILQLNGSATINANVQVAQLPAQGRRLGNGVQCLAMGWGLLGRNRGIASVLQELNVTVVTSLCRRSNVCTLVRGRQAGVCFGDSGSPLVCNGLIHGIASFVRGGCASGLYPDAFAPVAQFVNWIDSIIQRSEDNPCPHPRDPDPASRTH

N#Cc1nn(Cc2ccccc2)c2ncccc12	> 50 µM
O=C(Nc1nn(C(=O)C2CC2)c2ncccc12)C1CC1	1.5 µM
COc1cccc(CNC(=O)c2cnc3cc(C(C)(C)C)nn3c2C)c1 [Compound 22e]	> 50 µM

Query :: Tell me reported IC50 for COc1cccc(NC(=O)c2cnc3c(Cl)c(C(C)(C)C)nn3c2C)c1 [Compound 22c] , tested with human neutrophil elastase (HNE) (Homo sapiens, UniProt P08246).
Result :: > 50 µM

Query :: Then this compound: COc1cccc(NC(=O)c2cnc3cc(C(C)(C)C)nn3c2C)c1 [Compound 22b]
Result :: > 50 µM
